Target: RihA (Escherichia coli)
Sequence (P41409 whole entry): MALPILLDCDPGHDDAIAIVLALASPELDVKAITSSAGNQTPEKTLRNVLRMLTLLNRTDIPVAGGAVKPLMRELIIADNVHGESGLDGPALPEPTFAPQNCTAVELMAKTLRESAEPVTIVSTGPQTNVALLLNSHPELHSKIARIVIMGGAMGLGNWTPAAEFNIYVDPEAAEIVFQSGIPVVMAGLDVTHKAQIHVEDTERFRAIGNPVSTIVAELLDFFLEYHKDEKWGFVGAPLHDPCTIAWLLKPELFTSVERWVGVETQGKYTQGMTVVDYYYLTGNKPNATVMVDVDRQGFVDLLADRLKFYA
readout: pKi
Numbers only, as −log10 of the molar value.

What is its pKi for RihA (Escherichia coli)? Entry: Nc1ccc([C@@H]2N[C@H](CO)[C@@H](O)[C@H]2O)cc1N [DAPIR]
4.07
